system: 556581-035-R-J1-PDC complex spheroid growth; experiment: Anticancer human tumor 556581-035-R-J1-PDC patient-derived ovarian carcinoma cell line growth inhibition [AhR]; settings: second compound 0.1 µM; first compound 0.1 µM; hits give low values;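 note: compound exposure lasted 7 days; 100% = DMSO vehicle control growth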

compound	viability, T/C [%]
Nc1ccccc1NC(=O)c1ccc(CNC(=O)OCc2cccnc2)cc1 + Cc1cncc(-c2nc(NCCc3c[nH]c4ccccc34)c3ncn(C(C)C)c3n2)c1	100
COc1cccc2c1C(=O)c1c(O)c3c(c(O)c1C2=O)CC(O)(C(=O)CO)CC3OC1CC(N)C(O)C(C)O1 (configuration not stated) + CC(CO)NC(=O)c1cc(-c2ccc(Cl)cc2)nn(-c2cnn(C)c2)c1=O	80.7
COc1ccc([C@@H](O)c2cc(-c3ncnc4cc(N5CCOCC5)ccc34)c(F)cc2Cl)nn1 + CC(CO)NC(=O)c1cc(-c2ccc(Cl)cc2)nn(-c2cnn(C)c2)c1=O	105
COc1cc(C2c3cc4c(cc3C(OC3OC5COC(C)OC5C(O)C3O)C3COC(=O)C23)OCO4)cc(OC)c1O (configuration not stated) + CC(CO)NC(=O)c1cc(-c2ccc(Cl)cc2)nn(-c2cnn(C)c2)c1=O	117
CC1COCCN1c1cc(-c2ccnn2C)c2ccnc(-c3ccn[nH]3)c2n1 (configuration not stated) + CC(CO)NC(=O)c1cc(-c2ccc(Cl)cc2)nn(-c2cnn(C)c2)c1=O	79.7
O=C(c1cc(Cc2n[nH]c(=O)c3ccccc23)ccc1F)N1CCN(C(=O)C2CC2)CC1 + Cc1cncc(-c2nc(NCCc3c[nH]c4ccccc34)c3ncn(C(C)C)c3n2)c1	107
Cn1ncnc1C1c2n[nH]c(=O)c3cc(F)cc(c23)NC1c1ccc(F)cc1 (configuration not stated) + Cc1ccccc1N=Nc1ccc(NC(=O)c2ccnn2C)c(C)c1	97.4
